Settings: human gut metagenome, 24 h, 2 µM; also: call rule not given here
Property: Bacterial Biotransformation

Observe how each entry below is paired with its result.
Compound	Bacterial Biotransformation
COc1cc2c(c(OC)c1OC)-c1ccc(OC)c(=O)cc1[C@@H](NC(C)=O)CC2	Compound NOT metabolized
CC(C)NCC(O)COc1ccc(COCCOC(C)C)cc1.CC(C)NCC(O)COc1ccc(COCCOC(C)C)cc1.O=C(O)/C=C/C(=O)O (stereo not given) [BISOPROLOL FUMARATE]	Compound NOT metabolized
C=CCc1ccccc1OCC(O)CNC(C)C (stereo not given)	Compound NOT metabolized
N#Cc1ccc(C(c2ccc(C#N)cc2)n2cncn2)cc1	Compound NOT metabolized

Here is the next item to consider.
What does the data say about its Bacterial Biotransformation? Entry: CN1C(=O)CCS(=O)(=O)C1c1ccc(Cl)cc1 (stereo not given)
Compound NOT metabolized

Reference for the values: ChEMBL document CHEMBL5724914
